Attribution: paper PMC11084632

# measurement_target: GRABeCB2.0 sensor (Homo sapiens, UniProt P21554, S383T, form not given)
# Sequence (P21554 whole entry S383T, looked up, form open): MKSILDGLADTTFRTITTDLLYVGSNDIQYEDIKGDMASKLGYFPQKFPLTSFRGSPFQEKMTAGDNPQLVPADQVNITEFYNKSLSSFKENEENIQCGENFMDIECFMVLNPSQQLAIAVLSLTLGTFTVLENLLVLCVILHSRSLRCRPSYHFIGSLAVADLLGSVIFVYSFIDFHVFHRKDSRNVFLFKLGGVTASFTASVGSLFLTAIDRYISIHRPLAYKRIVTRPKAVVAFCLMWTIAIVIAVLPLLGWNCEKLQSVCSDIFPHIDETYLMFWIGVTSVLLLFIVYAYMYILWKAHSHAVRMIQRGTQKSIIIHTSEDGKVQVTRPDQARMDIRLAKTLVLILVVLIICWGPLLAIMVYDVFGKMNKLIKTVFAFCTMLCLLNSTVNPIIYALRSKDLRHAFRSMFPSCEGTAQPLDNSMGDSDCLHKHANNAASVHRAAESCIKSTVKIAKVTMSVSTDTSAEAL
# Assay type: cell-based
# conditions_used: read-out: GRABeCB2.0 IC50
Assignment: determine reported pIC50 for the given molecules.
The read-out pIC50 is expressed as -log10 of concentration in moles per litre.

-- ask State the recorded pIC50 for this entry: C/C(N)=N\C(=N/S(=O)(=O)c1ccc(C(F)(F)F)cc1)N1C[C@H](c2ccccc2)C(c2ccc(Cl)cc2)=N1
-- reply 6.98

-- ask Param item: CC(C)[C@H](N=C(NS(=O)(=O)c1ccc(Cl)cc1)N1C[C@H](c2ccccc2)C(c2ccc(Cl)cc2)=N1)C(N)=O
-- reply 6.83
